MEASURED_TARGET: T1, human ferroportin (SLC40A1) fused in frame with GFP, stably expressed on HEK293 cells (human, UniProt Q9NP59 1-571)
T1 sequence (looked up): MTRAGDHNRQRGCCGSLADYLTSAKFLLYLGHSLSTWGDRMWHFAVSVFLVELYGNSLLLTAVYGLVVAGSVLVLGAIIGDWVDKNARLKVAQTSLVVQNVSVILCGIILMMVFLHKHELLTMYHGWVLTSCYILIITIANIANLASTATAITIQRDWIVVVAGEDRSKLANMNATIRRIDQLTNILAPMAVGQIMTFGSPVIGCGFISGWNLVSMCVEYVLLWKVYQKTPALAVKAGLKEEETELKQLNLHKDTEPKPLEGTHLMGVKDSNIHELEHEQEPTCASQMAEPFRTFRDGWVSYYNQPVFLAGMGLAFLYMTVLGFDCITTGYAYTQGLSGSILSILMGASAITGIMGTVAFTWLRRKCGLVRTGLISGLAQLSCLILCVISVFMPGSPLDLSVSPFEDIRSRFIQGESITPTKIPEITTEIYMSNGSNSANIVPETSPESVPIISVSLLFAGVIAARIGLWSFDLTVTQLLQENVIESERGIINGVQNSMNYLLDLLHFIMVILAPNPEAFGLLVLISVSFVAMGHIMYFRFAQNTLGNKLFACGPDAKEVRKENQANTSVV
ASSAY_EXPLANATION: cell-based or functional assay
Listing of entries alongside the reported EC50 (nM) (n > 3).

The cases that follow already have their EC50 (nM) (n > 3) on record.
BINDER: H-DTAFPCIIF-NH2 [Compound 283 (DTAFPCIIF-NH2)]
EC50 (nM) (n > 3): 739 nM

BINDER: H-DTHFPCIAF-NH2 [Compound 51 (DTHFPCIAF-NH2)]
EC50 (nM) (n > 3): 382 nM

BINDER: H-DTHFPCIIA-NH2 [Compound 278 (DTHFPCIIA-NH2)]
EC50 (nM) (n > 3): > 1000 nM

BINDER: H-ATHFPCIIF-NH2 [Compound 284 (ATHFPCIIF-NH2)]
EC50 (nM) (n > 3): > 1000 nM

BINDER: H-DAHFPCIIF-NH2 [Compound 52 (DAHFPCIIF-NH2)]
EC50 (nM) (n > 3): 388 nM

Form field EC50 (nM) (n > 3), entry H-DTHFACIIF-NH2 [Compound 280 (DTHFACIIF-NH2)] : > 1000 nM

EC50 (nM) (n > 3) reported for this binder H-DTHFPCAIF-NH2 [Compound 279 (DTHFPCAIF-NH2)] : > 1000 nM
